B1: IQUB (parent)
chain: CRNCINLQNEAQKRESFLKYKCLL

variants of: B1; experiment: protein stability index of a GFP-peptide fusion (GPS, HEK-293T) (PSI 1-6); higher = more stable; details: c terminus: a fixed tail appended;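 also: lentivirally expressed fusions sorted by FACS into six bins by GFP to DsRed ratio, PSI derived from sequencing read proportions per bin multiplied by bin number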
observable: protein stability index
// keep it numeric: no unit symbol after the value

Here is how some variants turned out for protein stability index.
[
  {
    "mutant-code": "S16E",
    "value-reported": 2.15
  },
  {
    "mutant-code": "L18D",
    "value-reported": 1.63
  },
  {
    "mutant-code": "K19C",
    "value-reported": 3.27
  },
  {
    "mutant-code": "N3G",
    "value-reported": 1.76
  },
  {
    "mutant-code": "L7N",
    "value-reported": 2.26
  }
]

For `I5A` , write its protein stability index.
1.79
